assay: Microsomal stability in rat liver microsomes assessed as elimination half life pretreated with compound upto 60 mins followed by NADPH addition and measured after 60 mins by LC/MS analysis; assay type: ADME, Microsome; conditions: liver microsomes, read-out: beta t1/2
ENDPOINT LABEL: half-life (h)

> print(dat)
                                 mol.smiles  value.measured
1  CC(=O)NC[C@H]1CN(c2ccc(N3CCOCC3)c(F)c2)C(=O)O1            10.4
2  O=C1O[C@@H](CO)CN1c1ccc(-c2ccc(/C=N/N3CCCCC3)nc2)c(F)c1            1.61
3  O=C1O[C@@H](CO)CN1c1ccc(-c2ccc(/C=N/N3CCOCC3)nc2)c(F)c1            10.2
4  O=C1O[C@@H](CO)CN1c1ccc(-c2ccc(/C=N/N3CCS(=O)(=O)CC3)nc2)c(F)c1            12.1

====

experiment: Elimination half life in Sprague-Dawley rat at 1 mg/kg, iv measured upto 24 hrs by LC-MS analysis; assay type: ADME, organism-based; settings: in vivo, read-out: beta t1/2 (converted)
ENDPOINT LABEL: half-life (min)

> print(dat)
                                 mol.smiles  endpoint.label  value.measured
1  CC(=O)NC[C@H]1CN(c2ccc(N3CCOCC3)c(F)c2)C(=O)O1       half-life            24.6
2  O=C1O[C@@H](CO)CN1c1ccc(-c2ccc(/C=N/N3CCCCC3)nc2)c(F)c1       half-life            73.8
3  O=C1O[C@@H](CO)CN1c1ccc(-c2ccc(/C=N/N3CCOCC3)nc2)c(F)c1       half-life              48
4  O=C1O[C@@H](CO)CN1c1ccc(-c2ccc(/C=N/N3CCS(=O)(=O)CC3)nc2)c(F)c1       half-life            43.2
5  CC(=O)NC[C@H]1CN(c2ccc(-c3ccc(/C=N/N4CCS(=O)(=O)CC4)nc3)c(F)c2)C(=O)O1       half-life            44.4
6  CC(C)N/N=C/c1ccc(-c2ccc(N3C[C@H](CO)OC3=O)cc2F)cn1       half-life            58.8

====

assay: Stability in rat plasma assessed as parent compound remaining at 25 degreeC measured upto 60 mins by HPLC analysis; assay type: ADME, cell-free; conditions: read-out: Stability
Item-by-item account of remaining at 1 h
ENDPOINT LABEL: remaining at 1 h (%)

> print(dat)
                                   compound    endpoint.label  value.measured
1  O=C1O[C@@H](CO)CN1c1ccc(-c2ccc(/C=N/N3CCS(=O)(=O)CC3)nc2)c(F)c1  remaining at 1 h             113
2  CC(C)N/N=C/c1ccc(-c2ccc(N3C[C@H](CO)OC3=O)cc2F)cn1  remaining at 1 h             111
3  CC(=O)NC[C@H]1CN(c2ccc(N3CCOCC3)c(F)c2)C(=O)O1 [LINEZOLID]  remaining at 1 h            99.2
4  O=C1O[C@@H](CO)CN1c1ccc(-c2ccc(/C=N/N3CCOCC3)nc2)c(F)c1  remaining at 1 h             116

====

experiment: Microsomal stability in human liver microsomes assessed as intrinsic clearance pretreated with compound upto 60 mins followed by NADPH addition and measured after 60 mins by LC/MS analysis; format: ADME, Microsome; settings: time < 120 min, read-out: CLH
Item-by-item account of microsomal CLint
ENDPOINT LABEL: microsomal CLint (µL/min/mg)

> print(dat)
                                 mol.smiles  unit.name  value.measured
1  O=C1O[C@@H](CO)CN1c1ccc(-c2ccc(/C=N/N3CCCCC3)nc2)c(F)c1  µL/min/mg            11.8
2  O=C1O[C@@H](CO)CN1c1ccc(-c2ccc(/C=N/N3CCOCC3)nc2)c(F)c1  µL/min/mg            12.7
3  O=C1O[C@@H](CO)CN1c1ccc(-c2ccc(/C=N/N3CCS(=O)(=O)CC3)nc2)c(F)c1  µL/min/mg            1.51
4  CC(C)N/N=C/c1ccc(-c2ccc(N3C[C@H](CO)OC3=O)cc2F)cn1  µL/min/mg            5.78

====

Item-by-item account of AUC(0-t) at 24 h
experiment: AUC (0 to t) in ICR mouse at 1 mg/kg, iv measured upto 24 hrs by LC-MS analysis; format: ADME, organism-based; conditions: in vivo
ENDPOINT LABEL: AUC(0-t) at 24 h (ng·h/mL)

> print(dat)
                                 mol.smiles  value.measured
1  O=C1O[C@@H](CO)CN1c1ccc(-c2ccc(/C=N/N3CCCCC3)nc2)c(F)c1            1190
2  O=C1O[C@@H](CO)CN1c1ccc(-c2ccc(/C=N/N3CCOCC3)nc2)c(F)c1            2640
3  CC(C)N/N=C/c1ccc(-c2ccc(N3C[C@H](CO)OC3=O)cc2F)cn1             475
4  CC(=O)NC[C@H]1CN(c2ccc(N3CCOCC3)c(F)c2)C(=O)O1             794

====

test: Cmax in ICR mouse at 10 mg/kg, IG measured upto 24 hrs by LC-MS analysis; format: ADME, organism-based; conditions: in vivo, po
ENDPOINT LABEL: Cmax

> print(dat)
                                 mol.smiles  value.measured
1  O=C1O[C@@H](CO)CN1c1ccc(-c2ccc(/C=N/N3CCCCC3)nc2)c(F)c1       817 ng/mL
2  CC(C)N/N=C/c1ccc(-c2ccc(N3C[C@H](CO)OC3=O)cc2F)cn1       479 ng/mL
3  CC(=O)NC[C@H]1CN(c2ccc(N3CCOCC3)c(F)c2)C(=O)O1     10000 ng/mL
4  O=C1O[C@@H](CO)CN1c1ccc(-c2ccc(/C=N/N3CCOCC3)nc2)c(F)c1      4810 ng/mL

====

assay: Cmax in Sprague-Dawley rat at 10 mg/kg, IG measured upto 24 hrs by LC-MS analysis; assay type: ADME, organism-based; settings: in vivo, po
ENDPOINT LABEL: Cmax (ng/mL)

> print(dat)
                                   molecule  value.measured
1  CC(C)N/N=C/c1ccc(-c2ccc(N3C[C@H](CO)OC3=O)cc2F)cn1            2480
2  CC(=O)NC[C@H]1CN(c2ccc(N3CCOCC3)c(F)c2)C(=O)O1 [LINEZOLID]            4830
3  O=C1O[C@@H](CO)CN1c1ccc(-c2ccc(/C=N/N3CCCCC3)nc2)c(F)c1            1380
4  CC(=O)NC[C@H]1CN(c2ccc(-c3ccc(/C=N/N4CCS(=O)(=O)CC4)nc3)c(F)c2)C(=O)O1             140
5  O=C1O[C@@H](CO)CN1c1ccc(-c2ccc(/C=N/N3CCOCC3)nc2)c(F)c1            2320
6  O=C1O[C@@H](CO)CN1c1ccc(-c2ccc(/C=N/N3CCS(=O)(=O)CC3)nc2)c(F)c1             597

====

experiment: Microsomal stability in monkey liver microsomes assessed as intrinsic clearance pretreated with compound upto 60 mins followed by NADPH addition and measured after 60 mins by LC/MS analysis; format: ADME, Macaca mulatta, Microsome; conditions: rhesus monkey, time < 120 min, read-out: CLH
Item-by-item account of log10 of microsomal CLint
ENDPOINT LABEL: log10 of microsomal CLint (log10 of the value in µL/min/mg)

> print(dat)
                                 mol.smiles  value.measured
1  CC(=O)NC[C@H]1CN(c2ccc(N3CCOCC3)c(F)c2)C(=O)O1           -0.35
2  O=C1O[C@@H](CO)CN1c1ccc(-c2ccc(/C=N/N3CCS(=O)(=O)CC3)nc2)c(F)c1            0.38
3  CC(C)N/N=C/c1ccc(-c2ccc(N3C[C@H](CO)OC3=O)cc2F)cn1            1.14
4  O=C1O[C@@H](CO)CN1c1ccc(-c2ccc(/C=N/N3CCOCC3)nc2)c(F)c1            0.51
5  O=C1O[C@@H](CO)CN1c1ccc(-c2ccc(/C=N/N3CCCCC3)nc2)c(F)c1            1.24

====

tested on: Staphylococcus aureus; assay: Antibacterial activity against methicillin-sensitive Staphylococcus aureus assessed as inhibition of bacterial growth incubated for 16 to 20 hrs by CLSI based broth liquid microdilution method; format: functional; details: time 16-20 hrs
Label key: MET means MIC under 0.5 µg/mL; NOT MET means MIC of 0.5 µg/mL or more.

> print(dat)
                                 mol.smiles  class.name
1  CS(=O)(=O)OC[C@H]1CN(c2ccc(-c3ccc(/C=N/N4CCCCC4)nc3)c(F)c2)C(=O)O1         MET
2  Cc1cc(Br)cc(C(=O)N2CCN(/N=C/c3ccc(-c4ccc(N5C[C@H](CO)OC5=O)cc4F)cn3)CC2)c1         MET
3  CC(C)N/N=C/c1ccc(-c2ccc(N3C[C@H](CO)OC3=O)cc2F)cn1         MET
4  O=C1O[C@@H](CO)CN1c1ccc(-c2ccc(/C=N/N3CCSCC3)nc2)c(F)c1     NOT MET
5  O=C1O[C@@H](CO)CN1c1ccc(-c2ccc(/C=N/N3CCS(=O)(=O)CC3)nc2)c(F)c1         MET
6  O=C1O[C@@H](CO)CN1c1ccc(-c2ccc(/C=N/Nc3ccc(Cl)cc3)nc2)c(F)c1         MET
7  O=C1O[C@@H](CO)CN1c1ccc(-c2ccc(/C=N/Nc3ccncn3)nc2)c(F)c1     NOT MET
